- Study System: T1, MBD1 MBD (Homo sapiens, UniProt Q9UIS9 1-77)
- T1 sequence: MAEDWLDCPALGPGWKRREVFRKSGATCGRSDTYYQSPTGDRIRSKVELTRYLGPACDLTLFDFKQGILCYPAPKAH
- Assay Procedure: ITC
Record form. Attribute: Kd. Fill in for each entry.
Numbers only, in µM.

{"columns": ["Binder", "Kd / µM"],
 "data": [
  ["mCG/TG (dsDNA, 5mC at position 6 of strand 1) DNA 1: GTCAACGTTACG DNA 2: CGTAATGTTGAC", 2.2]
]}

Continue with the binder presented below.
Task item: I'd like to know its Kd. The binder in question is AmCGT (mCG) (dsDNA, 5mC at position 6 of both strands) DNA 1: GCCAACGTTGGC DNA 2: GCCAACGTTGGC
Reply: 1

Where do the numbers come from? From paper doi:10.1101/338061.
